Where these numbers come from: patent US20220411492A1

system.under.test: human Claudin 18.2 (hCLDN18.2) (human, UniProt P56856-2 1-261)
experimental.protocol: cell-based or functional assay
endpoint.label: CDC Maximum lysis (%)
Record the value in %, omitting the unit from your answer.

Entry under test: hu299B2-S32A-3 (antibody, V domains shown, also called humanized antibody hu299B2-S32A) VH: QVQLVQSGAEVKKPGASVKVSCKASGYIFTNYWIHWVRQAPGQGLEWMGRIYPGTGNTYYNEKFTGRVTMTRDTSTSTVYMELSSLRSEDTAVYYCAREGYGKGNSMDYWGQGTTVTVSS VL: DIVMTQSPDSLAVSLGERVTMNCKSSQSLLNAGNQKNYLTWYQQKPGQPPKLLFYWASTRESGVPDRFSGSGSGTDFTLTISSVQAEDVAVYHCQNAYYYPYTFGGGTKLEIK . Its CDC Maximum lysis (%) was 99.8
